# SYSTEM NAME: progesterone receptor (PR) (Homo sapiens)
# Sequence (P06401 1-933): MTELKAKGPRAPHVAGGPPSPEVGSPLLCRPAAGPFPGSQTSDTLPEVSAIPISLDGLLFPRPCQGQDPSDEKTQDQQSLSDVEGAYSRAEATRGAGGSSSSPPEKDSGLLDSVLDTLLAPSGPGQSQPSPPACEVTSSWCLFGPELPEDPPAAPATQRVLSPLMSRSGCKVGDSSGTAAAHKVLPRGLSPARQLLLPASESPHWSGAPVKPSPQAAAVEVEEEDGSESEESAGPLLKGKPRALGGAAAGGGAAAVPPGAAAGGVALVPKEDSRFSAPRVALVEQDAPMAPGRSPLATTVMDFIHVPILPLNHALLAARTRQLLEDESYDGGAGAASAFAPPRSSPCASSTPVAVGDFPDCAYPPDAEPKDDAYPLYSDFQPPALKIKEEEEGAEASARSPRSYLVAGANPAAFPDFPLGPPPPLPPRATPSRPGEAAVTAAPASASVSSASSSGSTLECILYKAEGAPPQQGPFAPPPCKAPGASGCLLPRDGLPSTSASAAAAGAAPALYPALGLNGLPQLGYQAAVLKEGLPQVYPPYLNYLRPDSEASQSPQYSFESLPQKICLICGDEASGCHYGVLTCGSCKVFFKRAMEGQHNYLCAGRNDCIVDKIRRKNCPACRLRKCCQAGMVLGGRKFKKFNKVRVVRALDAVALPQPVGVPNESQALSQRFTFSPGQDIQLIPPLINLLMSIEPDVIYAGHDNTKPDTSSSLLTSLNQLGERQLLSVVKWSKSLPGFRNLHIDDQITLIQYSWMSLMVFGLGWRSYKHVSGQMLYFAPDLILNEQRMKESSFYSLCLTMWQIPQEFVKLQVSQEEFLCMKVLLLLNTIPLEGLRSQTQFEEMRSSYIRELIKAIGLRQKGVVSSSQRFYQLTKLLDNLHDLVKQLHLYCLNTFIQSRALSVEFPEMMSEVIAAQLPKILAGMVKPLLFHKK
# ASSAY COMMENT: Progesterone receptor binding with recombinantly prepared receptor
Measured IC50 by item

# O=c1ccc2c(NCC(O)(CC3CCOc4ccccc43)C(F)(F)F)cccc2[nH]1 (centres unmarked) [Example 1] with progesterone receptor (PR) (Homo sapiens): IC50 is > 1000 nM

Attention now shifts to the item below.
# CC1(CC(O)(CNc2cccc3[nH]c(=O)ccc23)C(F)(F)F)CCOc2ccccc21 (single isomer, unassigned) [Example 2] with progesterone receptor (PR) (Homo sapiens): IC50 is > 1000 nM
